Biological target: human GlyT1c transporter (Homo sapiens, UniProt P48067)
Construct: expressed in transfected cells; host or cells: CHO cells (recombinant; line hGlyT1c_5_CHO is named for the uptake assay)
Sequence (P48067 1-706): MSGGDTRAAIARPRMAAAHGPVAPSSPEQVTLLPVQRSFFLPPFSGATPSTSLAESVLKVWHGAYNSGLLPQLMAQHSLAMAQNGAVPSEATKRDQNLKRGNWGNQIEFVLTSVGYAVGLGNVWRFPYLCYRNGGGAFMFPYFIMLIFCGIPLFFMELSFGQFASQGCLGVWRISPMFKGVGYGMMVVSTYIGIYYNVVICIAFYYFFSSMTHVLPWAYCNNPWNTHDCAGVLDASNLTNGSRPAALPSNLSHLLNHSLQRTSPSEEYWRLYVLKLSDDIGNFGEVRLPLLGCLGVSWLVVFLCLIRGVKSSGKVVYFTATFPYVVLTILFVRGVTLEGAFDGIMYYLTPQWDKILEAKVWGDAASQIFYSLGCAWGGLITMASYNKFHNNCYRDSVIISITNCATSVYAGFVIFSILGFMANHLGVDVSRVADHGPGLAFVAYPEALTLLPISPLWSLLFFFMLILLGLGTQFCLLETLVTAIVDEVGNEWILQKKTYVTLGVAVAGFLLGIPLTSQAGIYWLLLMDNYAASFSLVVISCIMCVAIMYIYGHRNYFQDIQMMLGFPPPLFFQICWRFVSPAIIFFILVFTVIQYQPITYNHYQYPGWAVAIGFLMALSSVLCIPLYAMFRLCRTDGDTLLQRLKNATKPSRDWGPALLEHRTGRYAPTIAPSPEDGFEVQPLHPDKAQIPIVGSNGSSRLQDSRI
Test: Radioligand binding assay using recombinant CHO cell membranes expressing human GlyT1
Settings: radioligand binding to human GlyT1c transporter-expressing membranes
pKi: −log10 of the molar value.
Consider the following compounds and their measured pKi readings.

>  <COMPOUND>
N#Cc1ccccc1S(=O)(=O)N1C[C@@H](Nc2cc(C(F)(F)F)ccn2)[C@H](c2ccccc2)C1 (relative stereo)

>  <pKi>
≥ 5.00

$$$$
>  <COMPOUND>
Cn1cnc(S(=O)(=O)N2C[C@@H](Nc3ccc4ccncc4c3)[C@H](c3ccccc3)C2)c1 (relative stereo)

>  <pKi>
≥ 5.00

$$$$
>  <COMPOUND>
Cn1cnc(S(=O)(=O)N2C[C@@H](Nc3ccc(Cl)c(C(F)(F)F)c3)[C@H](c3ccc(F)cc3)C2)c1 (relative stereo)

>  <pKi>
≥ 7.00

$$$$
>  <COMPOUND>
Cn1cnc(S(=O)(=O)N2C[C@@H](C(=O)c3ccccc3)[C@H](c3ccc(F)cc3)C2)c1 (relative stereo)

>  <pKi>
≥ 6.00

$$$$
>  <COMPOUND>
Cn1cnc(S(=O)(=O)N2C[C@H](Nc3cc(OC4CCCCC4)ncn3)[C@@H](c3ccc(F)cc3)C2)c1

>  <pKi>
≥ 7.00

$$$$
>  <COMPOUND>
N#Cc1ccccc1S(=O)(=O)N1C[C@@H](Nc2cccc(Cl)c2)[C@H](c2ccccc2)C1 (relative stereo)

>  <pKi>
< 5.00

$$$$
>  <COMPOUND>
Cn1cnc(S(=O)(=O)N2C[C@H](NCCO[Si](C)(C)C(C)(C)C)[C@@H](c3ccccc3)C2)c1

>  <pKi>
≥ 5.00

$$$$
>  <COMPOUND>
CCCS(=O)(=O)N1C[C@@H](NC(=O)c2ccc(C(F)(F)F)cc2)[C@H](c2ccccc2)C1 (relative stereo)

>  <pKi>
< 5.00

$$$$
>  <COMPOUND>
COc1ccccc1C(=O)N[C@@H]1CN(S(=O)(=O)c2cn(C)cn2)C[C@H]1c1ccccc1 (relative stereo)

>  <pKi>
≥ 5.00

$$$$
>  <COMPOUND>
O=S(=O)(C1CCCCC1)N1CC(Nc2ccc(F)c(F)c2)C(c2ccccc2)C1 (stereo not drawn)

>  <pKi>
≥ 5.00

$$$$
>  <COMPOUND>
Cn1cnc(S(=O)(=O)N2C[C@@H](Nc3ccccc3Cl)[C@H](c3ccccc3)C2)c1 (relative stereo)

>  <pKi>
≥ 5.00

$$$$
>  <COMPOUND>
Cn1cnc(S(=O)(=O)N2C[C@H](Nc3cccc(OCc4ccccc4)c3)[C@@H](c3ccccc3)C2)c1

>  <pKi>
≥ 7.00

$$$$
>  <COMPOUND>
Cn1cnc(S(=O)(=O)N2C[C@H](Nc3ccc(F)cn3)[C@@H](c3ccc(F)cc3)C2)c1

>  <pKi>
≥ 7.00

$$$$
>  <COMPOUND>
Cn1cnc(S(=O)(=O)N2C[C@H](NC(=O)COc3ccc(F)cc3)[C@@H](c3ccc(F)cc3)C2)c1

>  <pKi>
≥ 5.00

$$$$
>  <COMPOUND>
COc1ccc(S(=O)(=O)N2C[C@@H](NC(=O)c3cccc(C(F)(F)F)c3Cl)[C@H](c3ccccc3)C2)cn1 (relative stereo)

>  <pKi>
≥ 5.00

$$$$
>  <COMPOUND>
Cn1cnc(S(=O)(=O)N2C[C@@H](C(=O)c3cccc(C(F)(F)F)c3)[C@H](c3ccc(F)cc3)C2)c1 (relative stereo)

>  <pKi>
≥ 7.00

$$$$
>  <COMPOUND>
CC(C)OCCCNC[C@@H]1CN(S(=O)(=O)c2cn(C)cn2)C[C@H]1c1ccc(F)cc1 (relative stereo)

>  <pKi>
≥ 5.00

$$$$
>  <COMPOUND>
Cn1cnc(S(=O)(=O)N2C[C@@H](Nc3cccc(F)c3)[C@H](c3ccc(F)cc3)C2)c1 (relative stereo)

>  <pKi>
≥ 7.00

$$$$
>  <COMPOUND>
Cc1cc(N[C@H]2CN(S(=O)(=O)c3cn(C)cn3)C[C@@H]2c2ccccc2)ccc1Cl

>  <pKi>
≥ 7.00

$$$$
>  <COMPOUND>
O=C(N[C@@H]1CN(S(=O)(=O)c2cccnc2)C[C@H]1c1ccccc1)c1cccc(C(F)(F)F)c1Cl (relative stereo)

>  <pKi>
≤ 5.00

$$$$
>  <COMPOUND>
Cn1cnc(S(=O)(=O)N2C[C@@H](CNc3ccc(F)c(Cl)c3)[C@H](c3ccc(F)cc3)C2)c1 (relative stereo)

>  <pKi>
≥ 6.00

$$$$
>  <COMPOUND>
Cn1cnc(S(=O)(=O)N2C[C@H](NCc3ccc(Cl)s3)[C@@H](c3ccc(F)cc3)C2)c1

>  <pKi>
≥ 8.00

$$$$
>  <COMPOUND>
Cn1cnc(S(=O)(=O)N2C[C@@H](Nc3cccc(C(F)(F)F)c3)[C@H](c3ccccn3)C2)c1 (relative stereo)

>  <pKi>
≥ 7.00

$$$$
>  <COMPOUND>
Cn1cnc(S(=O)(=O)N2C[C@H](NC(=O)Nc3ccc(Cl)cc3)[C@@H](c3ccc(F)cc3)C2)c1

>  <pKi>
≥ 6.00

$$$$
>  <COMPOUND>
O=S(=O)(c1cnc2n1CCC2)N1CC(Nc2ccc(F)c(F)c2)C(c2ccccc2)C1 (stereo not drawn)

>  <pKi>
≥ 5.00

$$$$
>  <COMPOUND>
Cn1cnc(S(=O)(=O)N2C[C@@H](CNc3ccc(Cl)c(OC(F)(F)F)c3)[C@H](c3ccc(F)cc3)C2)c1 (relative stereo)

>  <pKi>
≥ 6.00

$$$$
>  <COMPOUND>
Cn1cnc(S(=O)(=O)N2C[C@H](Nc3ccc(F)c(-c4cncnc4)c3)[C@@H](c3ccc(F)cc3)C2)c1

>  <pKi>
≥ 8.00

$$$$
